Test system: PC-3
Test: Cytotoxicity against human PC3 cells assessed as reduction cell viability after 48 hrs by MTS assay
Assay type: functional
Settings: PC-3, 48 h
Assay readout: CC50 (µM)
Entry rule: numbers only, all in µM.

Report CC50 from PC-3 testing of CCCCCCCCCCCCCCCCOCC(CO[C@H]1O[C@H](CO)[C@@H](O)[C@H](O)[C@H]1N)OC (stereo partly drawn)
10.5

Report CC50 from PC-3 testing of CCCCCCCCCCCCCCCCOCC(CS[C@@H]1O[C@H](CO)[C@H](O)[C@H](O)[C@H]1N)OC (stereo partly drawn)
24.3

Report CC50 from PC-3 testing of CCCCCCCCCCCCCCCCOCC(CO[C@H]1O[C@H](CO)[C@H](O)[C@H](O)[C@H]1N)OC (stereo partly drawn)
8

Report CC50 from PC-3 testing of CCCCCCCCCCCCCCCCOCC(CO[C@@H]1O[C@H](CO)[C@@H](O)[C@H](O)[C@H]1N)OC (stereo partly drawn)
13.5

Report CC50 from PC-3 testing of CCCCCCCCCCCCCCCCOCC(CS[C@H]1O[C@H](CO)[C@H](O)[C@H](O)[C@H]1N)OC (stereo partly drawn)
15

Report CC50 from PC-3 testing of CCCCCCCCCCCCCCN
24.6

====

Experiment: Cytotoxicity against human MIAPaCa2 cells assessed as reduction cell viability after 48 hrs by MTS assay
Type: functional
Details: MIA PaCa-2, 48 h
Please provide measured CC50 for the entries that follow.
Entry rule: numbers only, all in µM.

Give recorded CC50. CCCCCCCCCCCCCCCCOCC(CO[C@@H]1O[C@H](CO)[C@H](O)[C@H](O)[C@H]1N)OC (stereo partly drawn)
25.8

Give recorded CC50. CCCCCCCCCCCCCCCCOCC(CO[C@H]1O[C@H](CO)[C@H](O)[C@H](O)[C@H]1N)OC (stereo partly drawn)
4.4

Give recorded CC50. CCCCCCCCCCCCCCCCOCC(CO[C@@H]1O[C@H](CO)[C@@H](O)[C@H](O)[C@H]1N)OC (stereo partly drawn)
10

Give recorded CC50. CCCCCCCCCCCCCCCCOCC(CS[C@H]1O[C@H](CO)[C@H](O)[C@H](O)[C@H]1N)OC (stereo partly drawn)
18.8

Give recorded CC50. CCCCCCCCCCCCCCN [TETRADECYLAMINE]
18.2

Give recorded CC50. CCCCCCCCCCCCCCCCOCC(CO[C@H]1O[C@H](CO)[C@@H](O)[C@H](O)[C@H]1N)OC (stereo partly drawn)
7

Give recorded CC50. CCCCCCCCCCCCCCCCOCC(CS[C@@H]1O[C@H](CO)[C@H](O)[C@H](O)[C@H]1N)OC (stereo partly drawn)
20.2
